# Target system: T1, 4H3628-bA
# T1 chain: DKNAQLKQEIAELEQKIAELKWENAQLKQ
# Assay procedure: two-hybrid library CCNG1;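 also: natural log of median RNA to DNA barcode read ratio; higher means stronger binding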
Measured interaction score, listed per entry.
Lab note: record the figure alone, no unit after it.

- DENAQLEQEIAELEQKNAELKWEIAQLEQ [4H1081-bA]: -1.07
- DKNAQLKQEIAELEQENAELKWKIAQLEQ [4H3613-bA]: -0.292
- DENAQLKQENAELEQKIAELKWKIAQLKQ [4H1710-bA]: 0.848

input: Provide interaction score value for the following binder: DENAQLEQKIAELKQENAELKWKIAQLEQ [4H1373-bA]
output: -0.805

Values were extracted from paper PMC10397247.
